Source listed as PubChem BioAssay (NCI).

- Test system: SK-MEL-5 melanoma
- Assay name: NCI-60 one-dose screen, 48 h (100 = growth as untreated, 0 = no growth, -100 = all killed)
- Particulars: 10 µM unless noted
This is part of a sample that, as a whole, favours compounds with a hit. Of some 83,000 tested, about 20% had one in any assay.
Decision: growth >= 60% yields Criterion met, all other cases yield Criterion not met.

As a guide, the following entries are already answered.
N#C/C(=C\c1ccc(C(F)(F)F)cc1)c1cc2ccccc2[nH]1	Criterion met
COc1cc(NCCCCCNC(C)(C)C)c2ncccc2c1	Criterion met
O=C(Cn1c[n+](CC(=O)c2ccc(-c3ccccc3)cc2)c2ccccc21)Nc1cccc2cccnc12	Criterion not met
O=S(=O)(NCCCNc1nccc(-c2c(-c3cccc(F)c3)nc3sccn23)n1)c1cccc2ccccc12	Criterion not met
CN1CCN(c2ccc(NC3=C(Cl)C(=O)c4ncccc4C3=O)cc2C(F)(F)F)CC1	Criterion met
Nc1ccccc1NC(=O)c1ccc(-n2nc(-c3ccccc3)c3ccccc32)cc1	Criterion met
COc1cc(C2C3CC4CCCC[C@H]4N3[C@@]3(C(=O)Nc4cc(Cl)ccc43)C2C(=O)c2nc3ccccc3[nH]2)cc(OC)c1OC (stereo partly drawn)	Criterion met

input: Hi team, for `O=S(=O)(NCCCNc1nccc(-c2c(-c3cccc(F)c3)nc3sccn23)n1)c1cccc(F)c1` , is the recorded growth at or above 60%?
output: Criterion not met
